Test: Clinical pharmacokinetics of Compound 1 monotherapy, Phase 1/2, advanced malignancies
Assay type: in vivo, human
Conditions: human, plasma, oral; multiple-dose, not dose-dependent; read-out: steady-state geometric mean half-life (converted)
attributeMeasured: half-life

Returns the measured half-life for the input molecule. Input: CN1C(=O)C(C)(C)Oc2c(-c3cn(C)c(=O)c4[nH]ccc34)cc(S(C)(=O)=O)cc21 [Compound 1]
~10 h

----------
Assay: Clinical pharmacokinetics of Compound 1 monotherapy, Phase 1/2, advanced malignancies
Assay type: in vivo, human
Settings: human, plasma, oral; 12 mg QD, cycle 1 day 1, N = 99; read-out: Tmax, median
attributeMeasured: Tmax (min)
Answer format: numeric, min implied, no suffix.

Give its Tmax value. Item: CN1C(=O)C(C)(C)Oc2c(-c3cn(C)c(=O)c4[nH]ccc34)cc(S(C)(=O)=O)cc21
30

----------
Assay: Clinical pharmacokinetics of Compound 1 monotherapy, Phase 1/2, advanced malignancies
Type: in vivo, human
Settings: human, plasma, oral, 12 mg, 12 mg QD; read-out: steady-state Cmax, geometric mean
attributeMeasured: Cmax (nM)
Provide only the numeric value, understood in nM.

Which Cmax is reported for this compound? CN1C(=O)C(C)(C)Oc2c(-c3cn(C)c(=O)c4[nH]ccc34)cc(S(C)(=O)=O)cc21
272

----------
Assay: Clinical pharmacokinetics of Compound 1 monotherapy, Phase 1/2, advanced malignancies
Type: in vivo, human
Conditions: human, plasma, oral, 12 mg, 12 mg QD, cycle 1 day 1, N = 99; read-out: Cmax, mean ± SD
attributeMeasured: Cmax (nM)
Return type: number; implicit unit nM.

Need Cmax of CN1C(=O)C(C)(C)Oc2c(-c3cn(C)c(=O)c4[nH]ccc34)cc(S(C)(=O)=O)cc21 , thanks.
266

----------
Assay: Treatment-emergent adverse events and exposure-safety analysis, Compound 1 monotherapy
Format: in vivo, human
Settings: human, plasma, oral, 16 mg, participant 16001, Grade 3 INR increased, 16 mg QD, concomitant warfarin; read-out: AUCss,0-24 of individual participant
attributeMeasured: AUC (µM·h)
Just the number in µM·h, nothing appended.

I would be grateful if you could share the reported AUC for CN1C(=O)C(C)(C)Oc2c(-c3cn(C)c(=O)c4[nH]ccc34)cc(S(C)(=O)=O)cc21 .
9.77

----------
Assay: Treatment-emergent adverse events and exposure-safety analysis, Compound 1 monotherapy
Type: in vivo, human
Details: FIG. 8, monotherapy 8-16 mg QD
Description: The selected clinical safety endpoints as deemed appropriate (eg, frequently occurring TEAEs (treatment-emergent adverse events), incident rate >20% for all AEs (adverse events) and clinically notable adverse events) were used to evaluate exposure-safety relationships. […] No statistically significant correlation was identified for steady-state Compound 1 AUC and any TEAEs or clinically notable AEs evaluated in this analysis, except hyperglycemia (p-value<0.05). […]
attributeMeasured: AUCss,0-24, second quartile (µM·h)
# value in µM·h; strip the unit string

Data request, read-out AUCss,0-24, second quartile, for CN1C(=O)C(C)(C)Oc2c(-c3cn(C)c(=O)c4[nH]ccc34)cc(S(C)(=O)=O)cc21
2.07

----------
Assay: Clinical pharmacokinetics of Compound 1 monotherapy, Phase 1/2, advanced malignancies
Type: in vivo, human
Settings: human, plasma, oral, 12 mg, 12 mg QD, cycle 1 day 1, N = 99; read-out: AUClast, mean ± SD
attributeMeasured: AUC(0-t) (µM·h)
Field format: number, assumed µM·h, no unit text.

Item CN1C(=O)C(C)(C)Oc2c(-c3cn(C)c(=O)c4[nH]ccc34)cc(S(C)(=O)=O)cc21 has what recorded AUC(0-t)?
2.74
